The origin of these recorded values is patent US20240059693A1.

- Target Desc: Human cytomegalovirus DNA polymerase (Human cytomegalovirus, UniProt P08546)
- Sequence (P08546 whole entry): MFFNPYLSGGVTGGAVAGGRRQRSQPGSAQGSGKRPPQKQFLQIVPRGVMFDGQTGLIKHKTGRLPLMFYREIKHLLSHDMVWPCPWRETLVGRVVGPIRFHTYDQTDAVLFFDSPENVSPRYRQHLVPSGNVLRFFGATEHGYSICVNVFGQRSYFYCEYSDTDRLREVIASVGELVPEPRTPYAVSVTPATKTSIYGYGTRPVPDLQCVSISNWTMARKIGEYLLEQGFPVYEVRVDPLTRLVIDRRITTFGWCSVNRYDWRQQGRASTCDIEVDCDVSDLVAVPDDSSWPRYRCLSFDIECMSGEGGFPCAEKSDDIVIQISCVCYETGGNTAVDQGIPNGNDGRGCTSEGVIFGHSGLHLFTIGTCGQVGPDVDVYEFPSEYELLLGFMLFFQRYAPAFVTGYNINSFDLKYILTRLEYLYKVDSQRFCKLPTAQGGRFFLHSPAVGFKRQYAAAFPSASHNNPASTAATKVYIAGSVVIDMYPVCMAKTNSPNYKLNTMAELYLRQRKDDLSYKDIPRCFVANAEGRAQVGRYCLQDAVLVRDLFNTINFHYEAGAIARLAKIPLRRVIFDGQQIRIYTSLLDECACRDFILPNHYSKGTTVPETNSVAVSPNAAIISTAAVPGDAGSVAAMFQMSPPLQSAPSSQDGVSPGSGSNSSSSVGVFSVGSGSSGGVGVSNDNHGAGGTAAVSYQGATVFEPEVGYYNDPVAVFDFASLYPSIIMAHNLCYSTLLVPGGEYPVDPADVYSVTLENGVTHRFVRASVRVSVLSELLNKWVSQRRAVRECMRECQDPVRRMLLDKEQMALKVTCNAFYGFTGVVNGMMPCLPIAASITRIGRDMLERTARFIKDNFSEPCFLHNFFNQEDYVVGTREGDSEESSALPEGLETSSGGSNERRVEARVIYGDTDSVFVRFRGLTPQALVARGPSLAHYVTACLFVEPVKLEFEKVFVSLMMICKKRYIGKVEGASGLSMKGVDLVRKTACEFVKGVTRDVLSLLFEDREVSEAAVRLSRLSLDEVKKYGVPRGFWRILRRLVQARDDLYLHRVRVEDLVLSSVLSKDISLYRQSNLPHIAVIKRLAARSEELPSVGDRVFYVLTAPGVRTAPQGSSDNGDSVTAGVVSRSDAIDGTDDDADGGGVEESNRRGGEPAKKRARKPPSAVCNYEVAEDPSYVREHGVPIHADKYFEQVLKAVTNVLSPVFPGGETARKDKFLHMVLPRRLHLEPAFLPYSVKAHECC
Mark Satisfied only for IC50 values smaller than 800 nM; exact matches and larger values are Not satisfied.

These solved cases illustrate the format of a correct answer.
Cn1nc(C(=O)NCc2ccc(Cl)cc2)c2c1C1(CCC1)N(C[C@H]1CCC(=O)N1)C2 [Compound 124]	Satisfied
CC1c2c(c(C(=O)NCc3ccc(Cl)cc3)nn2C)CN1C(C)C1CCC(=O)N1 (stereo not shown) [Compound 111]	Satisfied
Cn1nc(C(=O)NCc2ccc(Cl)cc2)c2c1CC(C[C@@H]1CCC(=O)N1)C2 (single isomer, unassigned) [Compound 127]	Satisfied
O=C1CC[C@H](CN2Cc3c(C(=O)NCc4ccc(Cl)cc4)nn(CC4CCCO4)c3C2)N1 (stereo partly shown) [Compound 29]	Satisfied
CC1c2c(c(C(=O)NCc3ccc(Cl)cc3)nn2C)CN1C(C)C1CCC(=O)N1 (stereo not shown) [Compound 110]	Not satisfied

Below 800 nM on IC50? Entry Cn1nc(C(=O)NCc2ccc(Cl)cc2)c2c1C(CO)N(C[C@H]1CCC(=O)N1)C2 (single isomer, unassigned) [Compound 121]
Not satisfied
